- Tested on: BEAS-2B
- testMethodNotes: Cytotoxicity against human BEAS2B cells assessed as reduction in cell viability after 48 hrs by MTT assay
- Type: cell-based
observable: IC50 (nM)
One number for each entry, in nM.

State its IC50: `CC(C)=CCC[C@]1(C)/C=C/[C@@H](OC(=O)C=C(C)C)[C@](C)(O)/C=C/C(=O)/C(CN2CCN(C)CC2)=C\C1`
2840

Here is the next item to consider.
Quote IC50 reported for `CC(C)=CCC[C@]1(C)/C=C/[C@@H](OC(=O)C=C(C)C)[C@](C)(O)/C=C/C(=O)/C(CF)=C\C1` please.
770

----------
- Test system: SMMC-7721
- testMethodNotes: Antiproliferative activity against human SMMC7721 cells assessed as reduction in cell viability after 48 hrs by MTT assay
- Format: functional, cell-based
- recordedConditions: SMMC-7721, 48 h
Exam item: assign criterion met to entries whose IC50 is below 4 µM and criterion not met to entries at or above 4 µM. Note that a value of exactly 4 µM receives criterion not met.

# example entries with known answers
Criterion: IC50 strictly below 4 µM. Is it met by `CC(C)=CCC[C@]1(C)/C=C/[C@@H](OC(=O)c2ccccc2)[C@](C)(O)/C=C/C(=O)/C(CO)=C\C1` ?
criterion not met

Here's an entry: `CC(C)=CCC[C@]1(C)/C=C/[C@@H](OC(=O)C=C(C)C)[C@](C)(O)/C=C/C(=O)/C(C(=O)N2CCOCC2)=C\C1` . Is its IC50 below 4 µM?
criterion met

Input `CC(C)=CCC[C@]1(C)/C=C/[C@@H](OC(=O)C=C(C)C)[C@](C)(O)/C=C/C(=O)/C(CN2CCN(C)CC2)=C\C1` ; condition: IC50 strictly below 4 µM. Does it hold?
criterion met

Is IC50 strictly under 4 µM for the entry `CC(C)=CCC[C@]1(C)/C=C/[C@@H](OC(=O)C=C(C)C)[C@](C)(O)/C=C/C(=O)/C(CO[Si](c2ccccc2)(c2ccccc2)C(C)(C)C)=C\C1` ?
criterion not met

Check if IC50 falls below 4 µM for `CC(C)=CCC[C@]1(C)/C=C/[C@@H](OC(=O)C=C(C)C)[C@](C)(O)/C=C/C(=O)/C(Cn2cc(CO)nn2)=C\C1` .
criterion met

# check: IC50 < 4 µM for `CC(C)=CCC[C@]1(C)/C=C/[C@@H](OC(=O)C=C(C)C)[C@](C)(O)/C=C/C(=O)/C(COC(=O)c2ccc([N+](=O)[O-])cc2)=C\C1`
criterion met

Kindly review the next compound as well.
Consider `COC/C1=C/C[C@](C)(CCC=C(C)C)/C=C/[C@@H](OC(=O)C=C(C)C)[C@](C)(O)/C=C/C1=O` . Does its IC50 lie strictly below 4 µM?
criterion not met

----------
Task for the reader: assign each of the following compounds its reported half-life.
- testMethodNotes: Half life of compound in toluene at 110 degreeC by HPLC analysis
- Assay type: physicochemical
Numbers only, in min.

In one line, give reported half-life of the entry `CC(C)=CCC[C@]1(C)/C=C/[C@@H](OC(=O)C=C(C)C)[C@](C)(O)/C=C/C(=O)/C(CO)=C\C1` .
5

Here's the next entry for you.
Output half-life of `CC(C)=CCC[C@]1(C)/C=C/[C@@H](OC(=O)C=C(C)C)[C@](C)(O)/C=C/C(=O)/C(CN2CCN(C)CC2)=C\C1`
5
